Tested on: HCT-116 colon
Method: NCI tumour cell line growth inhibition, 48 h
Measured TGI values are reported for all entries that follow.

1) NS(=O)(=O)c1ccc(N=Cc2c(O)[nH]c3ccc4ncsc4c23)cc1    > 25 µM
2) CCOC(=O)c1csc(CCCCCCc2nc(C(=O)OCC)cs2)n1    > 52.3 µM
3) Cn1c(C(O)C2(c3cccnc3)SCCCS2)cc2ccccc21 (centres undefined)    > 100 µM

Then there is this compound:
Challenge: Would you mind telling me what TGI value was observed for "O=C1[C@@H]2C(c3cccc([N+](=O)[O-])c3)=NO[C@@H]2C(=O)N1c1ccc(Cc2ccc(N3C(=O)[C@H]4C(c5cccc([N+](=O)[O-])c5)=NO[C@H]4C3=O)cc2)cc1" ?
Response given: > 100 µM

---

Measured TGI values are reported for all entries that follow.
Test system: MCF7 breast
Method: NCI tumour cell line growth inhibition, 48 h

// known answers, use as guide
1) CC1=NCC[N+]1(CCc1ccccc1)Cc1ccccc1 (stereo not drawn)    > 100 µM
2) O=C1C(Cl)=C(Nc2cccc(O)c2)C(=O)N1CCc1ccccc1    33.6 µM

Then there is this compound:
Challenge: Would you mind telling me what TGI value was observed for "Nc1n[n+](=O)c2ccccc2n1O" ?
Response given: > 100 µM

---

Measured GI50 values are reported for all entries that follow.
Tested on: MALME-3M melanoma
Method: NCI tumour cell line growth inhibition, 48 h

1) COc1cc(/C=C/C(=O)c2ccc(Nc3nc(Nc4ccc(F)cc4)nc(Nc4ccc(Cl)cc4)n3)cc2)cc(OC)c1OC    5.41 µM
2) CCOC(=O)c1c(NC(=O)COc2cccc3cccnc23)sc(C(=O)N(C)C)c1C    20.1 µM
3) N#Cc1c(-c2ccc(Cl)cc2)csc1NC(=O)Nc1ccc(Cl)c(C(F)(F)F)c1    1.01 µM

Challenge: Would you mind telling me what GI50 value was observed for CNC(=O)C(CCc1ccccc1)NC(=O)C(CC(=O)NO)CC(C)C (centres undefined) ?
Response given: > 25 µM

---

System: MDA-MB-435
Method: NCI tumour cell line growth inhibition, 48 h
Measure Name: TGI

1. COc1ccc(-c2cn3c(nc4ccccc43)c(/C=C/c3cccs3)n2)cc1    36.5 µM
2. CC(C)=CC(O)C(C(O)CCC1(C)OCCO1)S(=O)(=O)c1ccccc1 (stereo unspecified)    > 100 µM
3. CCOC(=O)NC(Nc1ccc(OC(F)(F)F)cc1)(C(F)(F)F)C(F)(F)F    > 100 µM
4. O=C(CN=C(CN(c1ccccc1)c1ccccc1)Oc1c(Cl)cc(Cl)cc1Cl)N1c2ccccc2Sc2ccccc21    > 100 µM
5. CCOC(=O)C1(Cc2ccc3c(c2)CCC3)Cc2cc3c(cc2C1=O)CCC3 (stereo unspecified)    > 100 µM
6. CCOC(=O)c1c(NC(=O)COc2cccc3cccnc23)sc(C(=O)N(C)C)c1C    31.5 µM
7. C/C(=N\NC(=S)Nc1ccccc1)c1nc2ncccc2[nH]1    60.3 µM
8. c1cc(-c2ccc(-c3ccc(-c4ccc(-c5cccc6nsnc56)[nH]4)c4nsnc34)[nH]2)c2nsnc2c1    > 100 µM

Challenge: Would you mind telling me what TGI value was observed for COc1ccc(C23OCC(Cc4cc(OC)c(OC)cc42)C3COC(C)=O)cc1OC (stereo unspecified) ?
Response given: > 100 µM

Challenge: Would you mind telling me what TGI value was observed for C=CCSc1nc2c(N)ncnc2n1C1OC(CO)C(O)C1O (stereo unspecified) ?
Response given: > 100 µM

Challenge: Would you mind telling me what TGI value was observed for "Nc1ccccc1C#C/C=C\C#Cc1cnccn1" ?
Response given: > 100 µM

---

System: HCT-116 colon
Method: NCI tumour cell line growth inhibition, 48 h; in the data active = GI50 below about 0.43 µM; inactive = the rest
Pick from TRUE = active, FALSE = inactive when you respond.

Please review the following examples before continuing.
1. Cc1c([C@H](C(Cl)Cl)[C@H](O)[C@H]2C[C@H](C)C(=O)O2)ccc2c1C(=O)[C@H]1[C@H]2C[C@@H](Br)[C@@]23O[C@@H](CO[C@H]2O)CC13C (stereo not given in full)    TRUE
2. Cc1ccc(/C(=N/NS(=O)(=O)c2ccc([N+](=O)[O-])cc2)Sc2cc(Cl)c(C)cc2S(N)(=O)=O)cc1    FALSE

Challenge: Given "COc1cc(C(=O)c2c(-c3ccccc3)oc3c(OC)cccc23)cc(OC)c1O" , state the outcome it received in this test.
Response given: FALSE

Challenge: Given CN1CCCC1c1cccnc1.O=C(O)c1ccccc1O.O=C([O-])c1ccccc1[OH2+].O=C([O-])c1ccccc1[OH2+].O=C([O-])c1ccccc1[OH2+].[Cu+2] (stereo not given) , state the outcome it received in this test.
Response given: FALSE

Challenge: Given "C=C1C(=O)O[C@H]2[C@H]1CC/C(CNC(=O)c1cccc3ccccc13)=C\CC[C@@]1(C)O[C@@H]21" , state the outcome it received in this test.
Response given: FALSE

---

System: M14 melanoma
Method: NCI tumour cell line growth inhibition, 48 h; in the data active means GI50 below about 0.43 µM; inactive means the rest
Pick from active, inactive when you respond.

Please review the following examples before continuing.
1. O=C1C(Cl)=C(Nc2cccc(O)c2)C(=O)N1CCc1ccccc1    inactive
2. Cc1c([C@H](C(Cl)Cl)[C@H](O)[C@H]2C[C@H](C)C(=O)O2)ccc2c1C(=O)[C@H]1[C@H]2C[C@@H](Br)[C@@]23O[C@@H](CO[C@H]2O)CC13C (some centres undefined)    active
3. N#C/C(=C\c1cn(Cc2ccccc2)c2ccccc12)C(=O)Nc1ncc(Cc2ccccc2Cl)s1    inactive

Challenge: Given "O=C(/C=C/c1cc2ccccc2[nH]c1=O)c1ccc(Cl)cc1" , state the outcome it received in this test.
Response given: inactive

---

Measured TGI values are reported for all entries that follow.
System: MOLT-4 leukemia
Method: NCI tumour cell line growth inhibition, 48 h
Unit µM implied. Number only.

// known answers, use as guide
1. O=C1c2scc(-c3ccccc3)c2-n2cccc21    37.9
2. Nc1ccccc1C#C/C=C\C#Cc1cnccn1    68.5

Then there is this compound:
Challenge: Would you mind telling me what TGI value was observed for COc1ccc(C2/C(=C(\O)c3ccccc3)C(=O)C(O)(CC(=O)c3ccccc3)N2c2ccc(OC)cc2)cc1 (stereo unspecified) ?
Response given: 54

---

Measured TGI values are reported for all entries that follow.
System: NCI-H522 lung
Method: NCI tumour cell line growth inhibition, 48 h

1) Cc1cccc2c1CC(C1OC(=O)c3ccccc31)C2=O (stereo not drawn)    > 100 µM
2) Cc1c(S(=O)(=O)/N=C(\NN)Nc2ccc(Cl)cc2)sc2ccc(Cl)cc12    32.5 µM
3) O=C(NCCOC(=O)OCCNC(=O)NC1CCCCC1)NC1CCCCC1    > 100 µM
4) CC(C)/C(Cl)=N\OC(=O)Nc1ccc(F)cc1    3.02 µM
5) O=C(NC(=S)Nc1ccccn1)c1ccccc1    > 100 µM
6) COc1ccc(C(=C[N+](=O)[O-])c2ccc(OC)cc2)cc1    32.7 µM
7) O=[N+]([O-])c1ccc(C2N3CCCCC3[C@H]3CCCCN23)cc1 (stereo partly drawn)    > 100 µM
8) CCCCCOc1ccc(C=Nc2ccc(-c3ccc(N=Cc4ccc(OCCCCC)cc4)c(OC)c3)cc2OC)cc1    > 100 µM
9) O=C1c2ccccc2C(=O)N1C/C=N/NS(=O)(=O)c1ccc(F)cc1    > 100 µM
10) COc1ccc(Nc2nn3c(=O)c4c(C)c(C)sc4nc3s2)cc1    67.1 µM

Challenge: Would you mind telling me what TGI value was observed for "COc1ccc(C(c2ccc(C(C)C)cc(OC)c2=O)c2ccc(C(C)C)cc(OC)c2=O)cc1" ?
Response given: 27.8 µM

Challenge: Would you mind telling me what TGI value was observed for "COc1ccc(-c2nnc(COc3ccc(Cl)cc3Cl)o2)cc1OC" ?
Response given: 18.3 µM

Challenge: Would you mind telling me what TGI value was observed for COc1ccc(S(=O)Cc2cc(OC)c(OC)c(OC)c2)cc1 (stereo not drawn) ?
Response given: > 100 µM

Challenge: Would you mind telling me what TGI value was observed for "C[C@]1(O)CC[C@H]2[C@@H]3CCc4cc(O)ccc4[C@H]3CC[C@@]21C" ?
Response given: 5.08 µM

Challenge: Would you mind telling me what TGI value was observed for CCN(CC)CCCC(CO)Nc1ccnc2cc(Cl)ccc12 (stereo not drawn) ?
Response given: > 100 µM

Challenge: Would you mind telling me what TGI value was observed for COC(=O)CCC1=NOC(CC2CC(CCC(=O)OC)=NO2)C1 (stereo not drawn) ?
Response given: > 100 µM

Challenge: Would you mind telling me what TGI value was observed for "CN(C)c1nc(=Nc2ccc3c(c2)OCO3)ss1" ?
Response given: > 100 µM

Challenge: Would you mind telling me what TGI value was observed for "CCOC(=O)NC(=O)c1cn(CCCOC(=O)CCCCCCCCC(=O)OCCCn2cc(C(=O)NC(=O)OCC)c(=O)n(C)c2=O)c(=O)n(C)c1=O" ?
Response given: > 100 µM
